From: the RNAGym collection of RNA variant scans (doi:10.1073/pnas.2313332121)

B1: TPR 5TU (parent)
chain: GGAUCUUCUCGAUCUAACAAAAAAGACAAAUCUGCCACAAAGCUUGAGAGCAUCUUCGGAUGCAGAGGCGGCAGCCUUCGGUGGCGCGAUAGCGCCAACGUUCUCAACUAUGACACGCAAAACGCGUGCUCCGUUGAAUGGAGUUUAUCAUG

# Variants of: B1
# TEST_METHOD_NOTES: polymerase ribozyme fitness, log enrichment relative to wild type (log ratio); higher = more active; in vitro selection for triplet polymerase activity
This sample holds only a part of the variants without activity.
polymerase ribozyme fitness (log ratio) reference
Give the value as a plain number.

Use these answered entries as a reference point.
[
  {
    "VARIANT_IDENTIFIER": "G124A G136A",
    "NUMERIC_RESULT": -0.107
  },
  {
    "VARIANT_IDENTIFIER": "U55A A138U",
    "NUMERIC_RESULT": -3.9
  },
  {
    "VARIANT_IDENTIFIER": "C93U C125G",
    "NUMERIC_RESULT": -1.79
  },
  {
    "VARIANT_IDENTIFIER": "A21C G84A C118A",
    "NUMERIC_RESULT": -0.563
  },
  {
    "VARIANT_IDENTIFIER": "G84A C123U",
    "NUMERIC_RESULT": -0.156
  }
]

QUERY: For C10G G92C , what is its reported polymerase ribozyme fitness (log ratio)?
RESULT: -3.61

QUERY: What would you report for C105U A120U G124A ?
RESULT: 0.877

QUERY: What would you report for G58A C75U ?
RESULT: -1.82

QUERY: What would you report for U7A A26G C75G C93A ?
RESULT: -4.13

QUERY: What would you report for A22U G83C ?
RESULT: -1.73

QUERY: What would you report for C114A ?
RESULT: -2.72

QUERY: What would you report for C5G G50C ?
RESULT: -3.2
